# Tested on: tau aggregates (tangles/threads) in temporal cortex sections of an AD brain
# assay-comment: Histological examination by fluorescence staining of AD brain sections
# Assay type: binding, human
# conditions: score for tangles, 0.001% (W/V) compound in 50% ethanol, 30 min, relative to PBB3
quantity-kind: Fluorescent binding Tangle

Some compounds with recorded Fluorescent binding Tangle:
compound: CN(C)c1ccc(-c2ccc(-c3cc4ccn(CC(O)CF)cc-4n3)cc2)cn1 (stereo not shown) [Compound G]
quantity-kind: Fluorescent binding Tangle
number: 2

compound: CNc1ccc(-c2ccc(-c3cc4cnccc4[nH]3)cc2)cn1 [Compound M]
quantity-kind: Fluorescent binding Tangle
number: 2.5

compound: CNc1ccc(-c2ccc(-c3cc4ccnc(O)c4[nH]3)cc2)cn1 [Compound C]
quantity-kind: Fluorescent binding Tangle
number: 2

a: Nc1ccc(-c2ccc(-c3cc4cnccc4[nH]3)cc2)cc1F [Compound L]
b: CNc1ccc(-c2ccc(-c3cn4cc(NCC(O)CF)ccc4n3)cc2)cn1 (stereo not shown) [Compound P]
Query: Fluorescent binding Tangle comparison. Which is larger, a or b ? Mark your selection by writing its label.
Response: a

###

# subject-of-test: recombinant tau proteins (human Tau, heparin-fiberized) (Homo sapiens, UniProt P10636)
# Sequence (P10636 whole entry): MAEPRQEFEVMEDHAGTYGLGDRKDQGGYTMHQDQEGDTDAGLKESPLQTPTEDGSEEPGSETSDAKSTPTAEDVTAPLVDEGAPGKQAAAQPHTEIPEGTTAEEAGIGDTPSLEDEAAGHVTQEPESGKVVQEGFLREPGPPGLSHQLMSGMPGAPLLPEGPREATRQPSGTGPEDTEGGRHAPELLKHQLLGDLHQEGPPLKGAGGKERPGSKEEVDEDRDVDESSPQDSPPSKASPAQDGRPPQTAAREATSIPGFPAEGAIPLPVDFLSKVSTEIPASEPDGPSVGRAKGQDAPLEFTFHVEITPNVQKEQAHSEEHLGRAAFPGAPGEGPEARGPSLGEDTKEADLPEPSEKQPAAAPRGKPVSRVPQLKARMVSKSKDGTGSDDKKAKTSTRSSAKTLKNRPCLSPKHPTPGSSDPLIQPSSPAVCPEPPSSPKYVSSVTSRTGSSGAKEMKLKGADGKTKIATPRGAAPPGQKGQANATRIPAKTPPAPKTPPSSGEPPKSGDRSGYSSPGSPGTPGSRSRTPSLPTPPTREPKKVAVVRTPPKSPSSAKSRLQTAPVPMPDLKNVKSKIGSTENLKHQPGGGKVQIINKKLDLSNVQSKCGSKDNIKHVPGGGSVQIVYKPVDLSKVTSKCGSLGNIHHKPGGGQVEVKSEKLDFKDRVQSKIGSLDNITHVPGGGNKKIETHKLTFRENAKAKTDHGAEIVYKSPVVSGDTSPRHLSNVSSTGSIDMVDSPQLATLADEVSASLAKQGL
# assay-comment: Fluorescence quantitative Tau binding assay in vitro
# conditions: 0.04 uM fiberized recombinant tau, 30 mM Tris pH 7.5, 1 h, fluorometric saturation curve
quantity-kind: Kd (nM)

Here is how some compounds turned out for Kd.
compound: CNc1ccc(-c2cnc(-c3cc4ccncc4[nH]3)cc2F)cn1 [Compound T]
u: nM
number: 2510
//
compound: Nc1cccc(-c2ccc(-c3cc4ccncc4[nH]3)cc2)c1 [Compound A]
u: nM
number: 500

a: COc1ccc2nc(-c3ccc(-c4ccc(N(C)C)nc4F)cc3)cn2c1 [Compound Q]
b: CNc1ccc(-c2cc(F)c(-c3cc4ccncc4[nH]3)cn2)cn1 [Compound R]
c: CNc1ccc(-c2ccc(-c3nc4ccc(NCC(O)CF)cc4s3)cc2)cn1 (centres unmarked) [Compound J]
Query: Number of compounds to sort: 3. Sort criterion: Kd, ascending. Field: ranking. Enter the labels in the order requested.
Response: a, c, b
(a: 520 nM, c: 890 nM, b: 1820 nM)

###

# Test system: tau aggregates (tangles/threads) in temporal cortex sections of an AD brain
# assay-comment: Histological examination by fluorescence staining of AD brain sections
# Type: binding, human
# conditions: score for tangles, 0.001% (W/V) compound in 50% ethanol, 30 min, relative to PBB3
quantity-kind: Fluorescent binding Tangle

Examples with answers:
molecule: CNc1ccc(-c2cc(F)c(-c3cc4ccncc4[nH]3)cn2)cn1 [Compound R]
Fluorescent binding Tangle: 3/3
--
molecule: CNc1ccc(-c2ccc(-c3cc4ccncc4[nH]3)c(F)n2)cn1 [Compound E]
Fluorescent binding Tangle: 3/3
--
molecule: CNc1ccc(-c2ccc(-c3cc4ccncc4[nH]3)nc2F)cn1 [Compound S]
Fluorescent binding Tangle: 3/3
--
molecule: CNc1ccc(-c2ccc(-c3cc4ccncc4[nH]3)cc2)c(F)n1 [Compound D]
Fluorescent binding Tangle: 3/3

Query: Query for tau aggregates (tangles/threads) in temporal cortex sections of an AD brain: what Fluorescent binding Tangle does the record show for Nc1ccc2nc(-c3ccc(-c4ccc(NCCF)nc4)cc3)sc2c1 [Compound I] ?
Response: 2

Query: Form field - read-out: Fluorescent binding Tangle; system: tau aggregates (tangles/threads) in temporal cortex sections of an AD brain; submitted item: CN(C)c1ccc(-c2ccc(-c3cn4cc(OCC(O)CF)ccc4n3)cc2)cn1 (stereo not drawn) [Compound O]
Response: 1.5/1.5
